Values were extracted from patent US11970473B2.

Tested on: S. epidermidis 700296 (Se)
Assay: Minimal inhibitory concentration (MIC) assay
Type: cell-based
Details: Staphylococcus epidermidis, S. epidermidis 700296; read-out: Antimicrobial activity (MIC) Se
Measured MIC accompanies every entry in the list below.

As a guide, the following entries are already answered.
Look up and report measured MIC for this entry: C=C(C)[C@@H]1CC=C2c3sc(Nc4ccc(F)cc4)nc3C[C@@H](C)[C@]2(C)C1 [Compound 24]
> 100 µg/mL

Look up and report measured MIC for this entry: C=C(C)[C@@H]1CC=C2c3sc(-c4ccc(O)cc4)nc3C[C@@H](C)[C@]2(C)C1 [Compound 15]
6.25 µg/mL

Others:
Look up and report measured MIC for this entry: C=C(C)[C@@H]1CC=C2c3sc(-c4ccc(OC)cc4)nc3C[C@@H](C)[C@]2(C)C1 [Compound 10]
> 100 µg/mL

Look up and report measured MIC for this entry: C=C(C)[C@@H]1CC=C2c3sc(-c4cccc(O)c4)nc3C[C@@H](C)[C@]2(C)C1 [Compound 14]
> 100 µg/mL
